Cited source: ChEMBL document CHEMBL1772969

Tested on: Plasmodium falciparum
Assay details: Antimalarial activity against chloroquine/pyrimethamine-resistant Plasmodium falciparum W2 after 48 hrs by [3H]hypoxanthine incorporation assay
Type: functional, organism-based
Lab note: cut-off is 0.1 µM. Strictly less in IC50 is TRUE. Exactly 0.1 µM or more is FALSE.

{"columns": ["Input smiles", "Class assignment"],
 "data": [
  ["CC[C@H]1OC(=O)[C@H](C)[C@@H](O[C@H]2C[C@@](C)(OC)[C@@H](O)[C@H](C)O2)[C@H](C)[C@@H](O[C@@H]2O[C@H](C)C[C@H](N(C)C)[C@H]2O)[C@](C)(O)C[C@@H](C)CN(CCCNC(=S)NCCCc2ccccc2)[C@H](C)[C@@H](O)[C@]1(C)O", "TRUE"],
  ["CC[C@H]1OC(=O)[C@H](C)[C@@H](O[C@H]2C[C@@](C)(OC)[C@@H](O)[C@H](C)O2)[C@H](C)[C@@H](O[C@@H]2O[C@H](C)C[C@H](N(C)C)[C@H]2O)[C@](C)(O)C[C@@H](C)CN(CCCN(CCC#N)C(=S)NCc2ccccc2)[C@H](C)[C@@H](O)[C@]1(C)O", "FALSE"],
  ["CC[C@H]1OC(=O)[C@H](C)[C@@H](O[C@H]2C[C@@](C)(OC)[C@@H](O)[C@H](C)O2)[C@H](C)[C@@H](O[C@@H]2O[C@H](C)C[C@H](N(C)C)[C@H]2O)[C@](C)(O)C[C@@H](C)CN(CCCN(CCC#N)C(=O)Nc2ccc3ccccc3c2)[C@H](C)[C@@H](O)[C@]1(C)O", "FALSE"],
  ["CC[C@H]1OC(=O)[C@H](C)[C@@H](O[C@H]2C[C@@](C)(OC)[C@@H](O)[C@H](C)O2)[C@H](C)[C@@H](O[C@@H]2O[C@H](C)C[C@H](N(C)C)[C@H]2O)[C@](C)(O)C[C@@H](C)CN(C)[C@H](C)[C@@H](O)[C@]1(C)O", "FALSE"],
  ["CC[C@H]1OC(=O)[C@H](C)[C@@H](O[C@H]2C[C@@](C)(OC)[C@@H](O)[C@H](C)O2)[C@H](C)[C@@H](O[C@@H]2O[C@H](C)C[C@H](N(C)C)[C@H]2O)[C@](C)(O)C[C@@H](C)CN(CCNC(=O)Nc2ccc3ccccc3c2)[C@H](C)[C@@H](O)[C@]1(C)O", "TRUE"],
  ["CC[C@H]1OC(=O)[C@H](C)[C@@H](O[C@H]2C[C@@](C)(OC)[C@@H](O)[C@H](C)O2)[C@H](C)[C@@H](O[C@@H]2O[C@H](C)C[C@H](N(C)C)[C@H]2O)[C@](C)(O)C[C@@H](C)CN(CCCNC(=O)NC(C)C)[C@H](C)[C@@H](O)[C@]1(C)O", "FALSE"],
  ["CC[C@H]1OC(=O)[C@H](C)[C@@H](O[C@H]2C[C@@](C)(OC)[C@@H](O)[C@H](C)O2)[C@H](C)[C@@H](O[C@@H]2O[C@H](C)C[C@H](N(C)C)[C@H]2O)[C@](C)(O)C[C@@H](C)CN(CCNC(=O)NCCc2ccccc2)[C@H](C)[C@@H](O)[C@]1(C)O", "FALSE"]
]}
